System: CCRIS mutagenicity, Ames/micronucleus/aberration tests
protocol summary: CCRIS mutagenicity studies
condition summary: Test System: AMES SALMONELLA TYPHIMURIUM; Strain/Indicator: TA98; Metabolic Activation: RAT, LIVER, S-9, AROCLOR 1254; Method: STANDARD PLATE
Calls of active or inactive are those of the source. How the calls were made is not given here.
Thanks in advance; please answer with one of these: Yes = active, No = inactive

Reference set, count: 3
1. COc1ccc(C(=O)n2ncc(Cl)c(Cl)c2=O)cc1 | No
2. O=[N+]([O-])c1c(O)cc2c3c(cccc13)-c1ccccc1-2 | Yes
3. CC(C)Nc1nc(Cl)nc(NC(C)C)n1 | No

Dear all, I need the recorded test outcome for COc1ccc([C@@H]2CC(=O)c3c(O)cc(O[C@@H]4O[C@H](CO[C@@H]5O[C@@H](C)[C@H](O)[C@@H](O)[C@H]5O)[C@@H](O)[C@H](O)[C@H]4O)cc3O2)cc1O , thank you.
No

What about this molecule? CC(=O)ON(C(C)=O)c1ccc2c(c1)Cc1ccccc1-2
Yes

Next record, please: Nc1ccc([N+](=O)[O-])cc1O
No

CNC(=O)N(C)c1nc2ccccc2s1 , same question.
No

// repeat for CN1CCCC1=O and report
No

----------
System: CCRIS mutagenicity, Ames/micronucleus/aberration tests
protocol summary: CCRIS mutagenicity studies
condition summary: Test System: AMES SALMONELLA TYPHIMURIUM; Strain/Indicator: TA1535; Metabolic Activation: RAT, LIVER, S-9, AROCLOR 1254; Method: STANDARD PLATE
Activity calls are given as the source filed them. The rule behind the calls is not given here.
property: mutagenic call

Some molecules with recorded mutagenic call:
1) O=C1c2ccccc2C(=O)c2c1ccc(O)c2O | inactive; negative
2) CN(C)CCC=C1c2ccccc2CCc2ccccc21 | inactive; negative
3) O=C1c2ccccc2-c2ccccc21 | inactive; negative
4) O=c1c(O)c(-c2ccc(O)cc2)oc2cc(O)cc(O)c12 | inactive; negative

Can you look up the measured mutagenic call of O=[Si]=O for me?
inactive; negative

And then Cc1c2ccccc2c(C)c2c1ccc1ccccc12 , what is it?
inactive; negative

Check O=[N+]([O-])c1cc(C(F)(F)F)cc([N+](=O)[O-])c1Cl too.
inactive; negative

----------
System: CCRIS mutagenicity, Ames/micronucleus/aberration tests
protocol summary: CCRIS mutagenicity studies
condition summary: Test System: AMES SALMONELLA TYPHIMURIUM; Strain/Indicator: TA98(NR); Metabolic Activation: NONE; Method: STANDARD PLATE
Activity calls are given as the source filed them. How the calls were made is not given here.
Use one of these outcomes when replying: yes (1) = active, no (0) = inactive

So what was the verdict on O=[N+]([O-])c1cc2cccc([N+](=O)[O-])c2c2ccccc12 in this test?
yes (1)

Can you handle O=[N+]([O-])c1cc2c(cc3ccc4cccc5ccc2c3c45)o1 next?
yes (1)

Then what about the compound O=[N+]([O-])c1ccc2[nH]c3ccc([N+](=O)[O-])cc3c2c1 ?
yes (1)

Check O=[N+]([O-])c1ccc2c(c1)Cc1ccccc1-2 too.
yes (1)

Also need CC(=O)Nc1ccc([N+](=O)[O-])cc1 , thanks.
no (0)

Next: O=[N+]([O-])c1cccc2c1ccc1ccccc12
yes (1)

Do the same for O=[N+]([O-])c1cc2c3c(cccc3c1)-c1ccccc1-2 please
no (0)

----------
Test system: CCRIS mutagenicity, Ames/micronucleus/aberration tests
protocol summary: CCRIS mutagenicity studies
condition summary: Test System: AMES SALMONELLA TYPHIMURIUM; Strain/Indicator: TA1535; Metabolic Activation: NONE; Method: PREINCUBATION
Active and inactive are the calls of the source. No rule for the calls is given here.
Hello, when you answer, please use one of the following outcomes: active, inactive

The examples below pair each entry with its known result.
1) O=P(O)(O)OP(=O)(O)OP(=O)(O)O | inactive
2) O=C(O)/C=C/C=C/C(=O)O | inactive
3) CCO | inactive
4) CC(=O)CC(=O)Nc1ccccc1 | inactive

Please turn your attention to the following entry.
Please let me know the test result on file for O=C1NC(=O)c2cc([N+](=O)[O-])ccc21 .
inactive

----------
Tested on: CCRIS mutagenicity, Ames/micronucleus/aberration tests
protocol summary: CCRIS mutagenicity studies
condition summary: End Point: In vitro chromosomal aberrations; Test System: Chinese hamster lung (CHL/IU) cells; Metabolic Activation: Rat, Liver, S9, Phenobarbital and 5,6-benzoflavone
The source made the active and inactive calls. How the calls were made is not given here.
Response enum: yes for active, no for inactive

Below are worked cases with known answers.
1) Nc1cc(Cl)ccc1O | yes
2) Oc1cccc(O)c1 | yes
3) CC(=O)CC(=O)Nc1ccccc1 | no

Kindly review the next molecule as well.
What was the test verdict on ClC(Cl)(Cl)Cl ?
no

----------
Tested on: CCRIS mutagenicity, Ames/micronucleus/aberration tests
protocol summary: CCRIS mutagenicity studies
condition summary: Test System: AMES SALMONELLA TYPHIMURIUM; Strain/Indicator: TA1537; Metabolic Activation: RAT, LIVER, S-9, AROCLOR 1254; Method: SPIRAL ASSAY
Calls of active or inactive are those of the source. No rule for the calls is given here.
Log the outcome using a class from T = active, F = inactive

Previously resolved entries follow.
1. CC(=O)Nc1ccc2c(c1)Cc1ccccc1-2 | F
2. O=[N+]([O-])c1ccc2c(c1)Cc1ccccc1-2 | T
3. CC1=CC(=O)c2ccccc2C1=O | F

// switching to the query compound
Write down the call the test reported for this compound. Item: Cc1c2ccccc2c(C)c2c1ccc1ccccc12
T

----------
System: CCRIS mutagenicity, Ames/micronucleus/aberration tests
protocol summary: CCRIS mutagenicity studies
condition summary: Test System: AMES SALMONELLA TYPHIMURIUM; Strain/Indicator: TA98; Metabolic Activation: NONE; Method: SPIRAL ASSAY
Activity calls are given as the source filed them. The rule behind the calls is not given here.
Hi! Could you answer with just one of these? active, inactive

1. O=[N+]([O-])c1ccc2c(c1)Cc1ccccc1-2 | active

I'd appreciate the recorded outcome for CC(=O)Nc1ccc2c(c1)Cc1ccccc1-2 from this test.
inactive

Now the compound Cc1c2ccccc2c(C)c2c1ccc1ccccc12
active

Note, next up: CC1=CC(=O)c2ccccc2C1=O
inactive

----------
Tested on: CCRIS mutagenicity, Ames/micronucleus/aberration tests
protocol summary: CCRIS mutagenicity studies
condition summary: Test System: AMES SALMONELLA TYPHIMURIUM; Strain/Indicator: TA100; Metabolic Activation: MOUSE, LIVER, S-9, 3-METHYLCHOLANTHRENE; Method: PREINCUBATION
The source made the active and inactive calls. How the calls were made is not given here.
Response enum: true (1) = active, false (0) = inactive

Give the logged outcome of this assay for the following compound: CC(O)CN(CC(O)CO)N=O (centres undefined)
false (0)

----------
Test system: CCRIS mutagenicity, Ames/micronucleus/aberration tests
protocol summary: CCRIS mutagenicity studies
condition summary: Test System: AMES SALMONELLA TYPHIMURIUM; Strain/Indicator: TA97A; Metabolic Activation: NONE; Method: PREINCUBATION
Active and inactive are the calls of the source. No rule for the calls is given here.
property: mutagenic call

1) Cc1cc2nc3c(=O)[nH]c(=O)nc-3n(C)c2cc1C | inactive; negative
2) CC1=CC(=O)c2ccccc2C1=O | inactive; negative
3) C/C=C/C=C/C(=O)O | inactive; negative
4) Cc1c2ccccc2c(C)c2c3c(ccc12)C(=O)C(=O)C=C3 | inactive; negative

----------
Test system: CCRIS mutagenicity, Ames/micronucleus/aberration tests
protocol summary: CCRIS mutagenicity studies
condition summary: Test System: E. COLI; Strain/Indicator: WP2 UVRA; Metabolic Activation: RAT, LIVER, S-9; Method: STANDARD PLATE
Calls of active or inactive are those of the source. The rule behind the calls is not given here.
property: mutagenic call

Example cases with answers are listed next.
1. COc1cc(-c2ccc(N=C=O)c(OC)c2)ccc1N=C=O | inactive; negative
2. O=[N+]([O-])c1ccc(Oc2ccc(Cl)cc2Cl)cc1 | inactive; negative
3. C#C[C@]1(O)CC[C@H]2[C@@H]3CCc4cc(O)ccc4[C@H]3CC[C@@]21C | inactive; negative
4. CC1=NN(c2ccccc2)C(=O)C1 | inactive; negative
5. O=C(O)CC[N+](=O)[O-] | inactive; negative

From here, focus on the item given below.
API: value(readout= mutagenic call, system= CCRIS mutagenicity, Ames/micronucleus/aberration tests, query= O=[N+]([O-])c1ccc2c(c1)Cc1ccccc1-2 )
inactive; negative

----------
Test system: CCRIS mutagenicity, Ames/micronucleus/aberration tests
protocol summary: CCRIS mutagenicity studies
condition summary: Test System: AMES SALMONELLA TYPHIMURIUM; Strain/Indicator: TA100; Metabolic Activation: RAT, LIVER, S-9, PCB; Method: STANDARD PLATE
Activity calls are given as the source filed them. The rule behind the calls is not given here.
Pick from t for active, f for inactive when you respond.

Study these solved cases before continuing.
1. c1cc2ccc3ccc4ccc5cccc6c(c1)c2c3c4c56 | f
2. Cc1cccc2c1ccc1ccccc12 | t
3. c1ccc2c(c1)ccc1c3ccccc3ccc21 | t

Tell me the recorded outcome of this test for Cc1c2ccccc2c(C)c2c1ccc1ccccc12 .
t
